Hello, the source for this data is patent US12037324B2, in case you need it.

Would you kindly list BRET β-Arrestin2 High AT1R Expression Ymax (%) for each of these compounds?
Target: hAT1R (Homo sapiens, UniProt P30556)
Sequence (P30556 1-359): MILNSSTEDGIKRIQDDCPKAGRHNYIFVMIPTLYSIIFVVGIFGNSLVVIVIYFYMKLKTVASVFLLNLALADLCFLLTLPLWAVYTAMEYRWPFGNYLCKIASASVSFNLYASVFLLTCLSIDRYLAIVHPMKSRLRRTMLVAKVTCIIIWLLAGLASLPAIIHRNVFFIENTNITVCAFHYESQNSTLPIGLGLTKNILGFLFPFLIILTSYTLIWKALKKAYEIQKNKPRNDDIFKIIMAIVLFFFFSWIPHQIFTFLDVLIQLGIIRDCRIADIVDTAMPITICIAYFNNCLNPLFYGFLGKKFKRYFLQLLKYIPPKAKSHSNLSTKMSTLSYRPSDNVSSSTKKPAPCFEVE
Assay: BRET β-arrestin2 biosensor assay, higher receptor expression (hAT1R 5 ng/well), HEK293 cells
Assay type: cell-based
# answer = value followed by unit

response.value for CCc1nc2c(C)cc(C)nc2n1Cc1ccc(-c2cc(Oc3cncc(OC)c3)ccc2-c2nn[nH]n2)cc1 (field: BRET β-Arrestin2 High AT1R Expression Ymax (%)) = 62.3%

response.value for CCCC1=NC2(CCCC2)C(=O)N1Cc1ccc(-c2cc(N3CCC[C@@H](C)C3)ccc2-c2nn[nH]n2)cc1 (field: BRET β-Arrestin2 High AT1R Expression Ymax (%)) = 35.0%

response.value for CCCCC1=NC2(CCCC2)C(=O)N1Cc1ccc(-c2cc(-c3cccc(F)c3F)ccc2-c2noc(=O)[nH]2)cc1 (field: BRET β-Arrestin2 High AT1R Expression Ymax (%)) = 104.0%

response.value for CCCCc1ncc(C(=O)NCC(C)(C)C)n1Cc1ccc(-c2cc(-c3ccccc3)ccc2-c2nn[nH]n2)cc1 (field: BRET β-Arrestin2 High AT1R Expression Ymax (%)) = 71.4%

response.value for CCCCC1=NC2(CCCC2)C(=O)N1Cc1ccc(-c2cc(Nc3ccccc3)ccc2-c2nn[nH]n2)cc1 (field: BRET β-Arrestin2 High AT1R Expression Ymax (%)) = 9.6%

response.value for CCc1nc2c(C)cc(C)nc2n1Cc1ccc(-c2cc(-n3ccc4cc(F)ccc43)ccc2-c2nn[nH]n2)cc1 (field: BRET β-Arrestin2 High AT1R Expression Ymax (%)) = 88.3%

response.value for CCc1nc2c(C)cc(C)nc2n1Cc1ccc(-c2cc(-c3cccc(C)c3)ccc2-c2nnn[nH]2)nc1 (field: BRET β-Arrestin2 High AT1R Expression Ymax (%)) = 93.0%

---

Target: AGTR1 (Homo sapiens, UniProt P30556)
Construct: host or cells: Pathunter CHO-K1 AGTR1 β-arrestin cell line (CHO-K1)
Experiment: DiscoveRx β-arrestin2 recruitment assay (enzyme complementation, Pathunter CHO-K1 AGTR1 β-arrestin cell line)
Assay type: cell-based
Conditions: DiscoveRx β-arrestin2 recruitment, maximal response
Property: DiscoveRx β-arrestin2 Ymax (%)
The reply should be a number in %, with the unit left off.

response.value for CCCCc1nc(Cl)c(C(=O)O)n1Cc1ccc(-c2cc(N3CCCC(F)(F)C3)ccc2-c2nn[nH]n2)cc1 [Example 416] (field: DiscoveRx β-arrestin2 Ymax (%)) = 29.5

response.value for CCCC1=NC2(CCCC2)C(=O)N1Cc1ccc(-c2cc(-c3cc(C)ccn3)ccc2-c2nn[nH]n2)cc1 [Example 116] (field: DiscoveRx β-arrestin2 Ymax (%)) = 42.1

response.value for CCc1nc2c(C)cc(C)nc2n1Cc1ccc(-c2cc(-c3ccccc3O)ccc2-c2nnn[nH]2)cn1 [Example 178] (field: DiscoveRx β-arrestin2 Ymax (%)) = 75.6

response.value for CCc1nc2c(C)cc(C)nc2n1Cc1ccc(-c2cc(-c3ccsc3)ccc2-c2nn[nH]n2)cc1 [Example 55] (field: DiscoveRx β-arrestin2 Ymax (%)) = 44.9

response.value for CCc1nc2c(C)cc(C)nc2n1Cc1ccc(-c2cc(-c3cccc(C(=O)N(C)C)c3)ccc2-c2nn[nH]n2)cc1 [Example 23] (field: DiscoveRx β-arrestin2 Ymax (%)) = 26.8

response.value for CCCCC(=O)N(Cc1ccc(-c2cc(-c3ccccc3)ccc2-c2nn[nH]n2)cc1)C1(C(=O)O)CCN(c2ccccc2)CC1 [Example 298] (field: DiscoveRx β-arrestin2 Ymax (%)) = 31.3

response.value for CCCCc1nc(Cl)c(C(N)=O)n1Cc1ccc(-c2cc(-c3ccccc3)ccc2-c2nn[nH]n2)cc1 [Example 393] (field: DiscoveRx β-arrestin2 Ymax (%)) = 41.2

response.value for CCCCC1=NC2(CCCC2)C(=O)N1Cc1ccc(-c2cc(-c3cccc(C(F)(F)F)n3)ccc2-c2nn[nH]n2)cc1 [Example 142] (field: DiscoveRx β-arrestin2 Ymax (%)) = 22.7

response.value for CCCCC1=NC2(CCCC2)C(=O)N1Cc1ccc(-c2cc(N3CCC(C)C3)ccc2-c2nn[nH]n2)cc1 (stereo not drawn) [Example 103] (field: DiscoveRx β-arrestin2 Ymax (%)) = 8.8

response.value for CCc1nc2c(C)cc(C)nc2n1Cc1ccc(-c2cc(-c3cccc(OC)n3)ccc2-c2nn[nH]n2)cc1 [Example 29] (field: DiscoveRx β-arrestin2 Ymax (%)) = 29.8

response.value for CCc1nc2c(C)cc(C)nc2n1Cc1ccc(-c2cc(-c3ccccc3)ccc2-c2nnn[nH]2)nc1 [Example 176] (field: DiscoveRx β-arrestin2 Ymax (%)) = 32.0

response.value for CCc1nc2c(C)cc(C)nc2n1Cc1ccc(-c2cc(Oc3cc(N)ccn3)ccc2-c2nn[nH]n2)cc1 [Example 249] (field: DiscoveRx β-arrestin2 Ymax (%)) = 34.2

response.value for CCCCc1ncc(C(=O)NC2CCCCC2)n1Cc1ccc(-c2cc(-c3ccccc3)ccc2-c2nn[nH]n2)cc1 [Example 354] (field: DiscoveRx β-arrestin2 Ymax (%)) = 48.3

response.value for CCc1nc2c(C)cc(C)nc2n1Cc1ccc(-c2cc(-n3cc(C4CCCC4)nn3)ccc2-c2nnn[nH]2)cc1 [Example 230] (field: DiscoveRx β-arrestin2 Ymax (%)) = 16.7

response.value for CCOc1nc2cccc(C(=O)O)c2n1Cc1ccc(-c2cc(-c3cnc(OC)c(C)c3)ccc2-c2nn[nH]n2)cc1 [Example 328] (field: DiscoveRx β-arrestin2 Ymax (%)) = 51.8
